System Name: GDP-bound KRAS protein (aa 1-169), containing both G12C and C118A amino acid substitutions (Homo sapiens, UniProt P01116, C118A/G12C)
Sequence (P01116 1-169 isoform P01116-2 G12C/C118A): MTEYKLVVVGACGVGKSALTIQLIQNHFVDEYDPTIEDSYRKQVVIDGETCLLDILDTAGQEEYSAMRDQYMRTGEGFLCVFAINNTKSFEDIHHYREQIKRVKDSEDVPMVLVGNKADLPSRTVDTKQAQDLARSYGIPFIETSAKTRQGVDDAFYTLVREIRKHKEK
Measurement Protocol: Coupled nucleotide exchange assay (SOS-mediated, AlphaScreen)
Type: biochemical
Condition Summary: 2 h compound pre-incubation; read-out: Avg 2 h Coupled exchange IC50
Reported Property: IC50 (nM)

{"Molecule": "C=CC(=O)N1CC2(CCN(c3nc4c(c(N[C@@H](CC(=O)NC)c5cccc(C#N)c5)n3)CCCC4)C2)C1 (single isomer, unassigned) [Example 1-21-1]", "Data Value": 9085}
{"Molecule": "C=CC(=O)N1CC2(CCN(c3nc(N[C@H](CC(=O)NC)CC(C)C)c4ccc(C(F)(F)F)cc4n3)C2)C1 [Example 1-35]", "Data Value": 142}
{"Molecule": "C=CC(=O)N1CC2(CCN(c3nc(N[C@H](CC(=O)NC)CC(C)C)c4ccccc4n3)C2)C1 [Example 1-5]", "Data Value": 1100}
{"Molecule": "C=CC(=O)N1CC2(C[C@H](CO)N(c3nc4c(c(N[C@H](CC(=O)NC)CC(C)C)n3)CCCC4)C2)C1 (single isomer, unassigned) [Example 1-24-1]", "Data Value": 4580}
{"Molecule": "C=CC(=O)N1CC2(CCN(c3nc(N[C@H](CC(=O)NC)CC(C)C)c4c(ncn4C)n3)C2)C1 [Example 1-14]", "Data Value": 196000}
{"Molecule": "C=CC(=O)N1CC2(CCN(c3nc4c(c(N[C@H](Cc5nccs5)CC(C)C)n3)CCC(C)(C)C4)C2)C1 [Example 1-43]", "Data Value": 121}
